- SYSTEM UNDER TEST: cynomolgus TSLPR on Ba/F3-cTSLPR-cIL7Ra cells (cynomolgus monkey)
- PROTOCOL: cell-based or functional assay
Listed binders paired with reported Avg IC50, Ba/F3-cyTSLPR proliferation
Kindly answer with a numeric value in µg/mL, unit omitted.

Field: example entries. Status: answers known.
BINDER	UNIT ABBREV	Avg IC50, Ba/F3-cyTSLPR proliferation
mouse anti human TSLPR antibody 13H5 (antibody, mouse IgG1, V domains shown, Mouse IgG1/kappa purified from hybridoma supernatant; also called m13H5; LB55.13H5.2C3) VH: QVLLKQSGPSLVQPSQSLSITCTVSGFSLSRYGVHWVRQSPGKGLEWLGVIWRSGSTDYNAAFMSRLSITQDNSKSQVFFNMNSLQSDDSAIYYCAKKAFYVMDYWGQGTSVTVSS VL: DIQMTQTTSSLSASLGDRVTISCRASQDISIYLNWYQQKPDGTVKLLIYYTSRLHSGVPSRFSGSGSGTNFSLTITNLEEEDIATYFCQQGNTLPWTFGGGTKLEIKR	µg/mL	0.0129
mouse antibody 54A11 (antibody, mouse IgG2a, V domains shown, Mouse IgG2a/kappa from hybridoma; also called m54A11; LB55.54A11.3D6) VH: EVQLQQSGPELVKPRASVKISCKASGYSFTGYYIHWVKQSHVKSLEWIGRINPYNGATIYNPNFKDKASLTVDKSSSTAFMEVHSLTSEDSAVYYCARSYGYVNYFDYWGQGTTLTVSS VL: EIVLTQSPATLSVTPGDSVSLSCRASQSISNNLHWYHQKSHESPRLLIKFGFQSISGIPSRFSGSGSGTDFTLSINSVETEDFGMYFCQQTNSWLTFGAGTKLELKR	µg/mL	0.138

Attention now shifts to the item below.
Enquiry: Entry mouse antibody 49A5 (antibody, mouse IgG1, V domains shown, Mouse IgG1/kappa from hybridoma; also called m49A5; LB55.49A5.2F9) VH: QVQLKQSGPGLVQPSQSLSITCTVSGFSLTTYGVHWVRQSPGKGLEWLGVIWRGGNTAYNPAFMSRLSITKDNSKSQVFFKMNSLQADDTAIYHCAKKSYYGYHAMGYWGQGTSVTVSS VL: DIQMTQTTSSLSASLGDRVTINCRASQDISNYLNWYQQNPDGTVKLLIYYTSRLHSGVPSRFSGSGSGTDYSLTISNLEQEDIATYFCQQANTLPWTFGGGTKLEIKR has what Avg IC50, Ba/F3-cyTSLPR proliferation?
Return: 0.231
